- System: MS2 coat protein
- protocol: apparent Kd, MS2 coat protein; higher = weaker binding; RNA-MaP array; FMN 200 µM where present
- assay.conditions: designed as: OFF switch for flavin mononucleotide; no ligand
Would you mind telling me the reported apparent Kd of each entry?
A number alone suffices; assume nM.

The sequence UGACACAUGAGGGUCUCCCUUGACAUGAGGAUCACCCAUGUGCAGGAUAUACGUGUGAUGGUAUAGUAGAAGGGCACUCUAUGU showed apparent Kd equal to 30.6

Value of measured apparent Kd for the entry GAAGUUAGAGGAUAUACAUGAGGAUCACCCAUGUGUGUUGUGAACAAUGUAUGUUUAUGUAGAAGGCUAACUUC : 79.4

Measured apparent Kd, UUUUAGUAAGGAUAUGCGUAGAUCUACGAAAGUAGAUCUACGCAGAAGGUACAUGAGGAUCACCCAUGUAGAUU : 21.5

The reported apparent Kd of the sequence GCCCGCGCUAAGGAUAUCAGGGUUAAAAUAGUAUGAGAAGGUAGCACAUGAGGAUCACCCAUGUGUCCCUUAUG was 16.5

apparent Kd reading for CCUCCCUGAGGAUAUCCACCCUCAUACAUGAGGAUCACCCAUGUUCAACCCUGGGUUCCCGGAGAAGGCAGUUUUC : 97.2

The sequence listed as CCUCUUGGGCAAGGAUAUCCUGCGCGGUUCCGGUUCGUGUCUGUCACAUGAGGAUCACCCAUGUGGGAGAAGGUGCCUGCGGUC shows apparent Kd equal to 17.9

# sequence UCGCUGCGAGGAUAUACAUGAGGAUCACCCAUGUACGGGUCCGGGUCUAAGUUGAUAAGUAGAAGGCGCAGUGA ; its apparent Kd = 125

apparent Kd measured on GUUAAGGUAGGAUAUACGAUAAUAUAGGGUAGAGAUAUAACACAUGAGGAUCACCCAUGUAGAAGGACCAAUUG = 25.3

Lab note: GGAAAGCAAGGAUAUACAAACAAACAAACAAACAAAAGGGAACAUGAGGAUCACCCAUGUAGAAGGUGCAAACA gave apparent Kd of 41.7

Reported apparent Kd ( GUUAGACAUGAGGAUCACCCAUGUGAGGAUAUGAUGCGAAUAAAGAAUGAAGUAAGCAUCAGAAGGCACAUAUG ) = 267

* * *

- Test system: MS2 coat protein
- protocol: apparent Kd, MS2 coat protein; higher = weaker binding; RNA-MaP array; FMN 200 µM where present
- assay.conditions: ligand present: flavin mononucleotide; designed as: OFF switch for flavin mononucleotide
endpoint: apparent Kd
// unit must come after the numeric part

I looked up CGUUUGGGAGGAUAUCCAAUAUAUGACAUGAGGAUCACCCAUGUUUCCACUCGUACCUCCGGAGAAGGCCCUGCGU and its apparent Kd for MS2 coat protein was 21 nM

# GAACUGAAGCAUAGCUUUAGUCGUACAUGAGGAUCACCCAUGUAGGAUAUGGUAGGCUUAGCUUACUAGAAGGAUAGAGUGAUC with MS2 coat protein: apparent Kd is 66.8 nM

// apparent Kd (MS2 coat protein) for AAGUAUGGAGGAUAUACAUGGAUAUACAUUCAUGUGGACCUACAUGAGGAUCACCCAUGUAGAAGGCCAUAAUA = 16.6 nM

UUUUUGUGAGGAUAUCAGUAGUAAAUAAAUAAAAUUACUACUGAGAAGGCACAUGAGGAUCACCCAUGUUCCUU on MS2 coat protein gives apparent Kd = 33.4 nM

Per the reported MS2 coat protein data, AGUCGGAGCAGAGGAUAUUACAUGAGGAUCACCCAUGUAGGUACCAAUAGCUGGAAACAGCAAUGUAAGAAGGCUGCUCCGACA has apparent Kd of 281 nM

Item GUCAGCUCGUGAGGAUAUACAACACUGCUUCGGCAGUGUAUUAUGAUCACAUGAGGAUCACCCAUGUAGAAGGCACGAGCUGAU was tested on MS2 coat protein; the reported apparent Kd is 230 nM
